target: UniProtKB P04626; assay: HER-2 autophosphorylation kinase assay (DELFIA/time-resolved fluorometry); conditions: selectivity index, IC50 EGFR/IC50 HER-2
Sequence (P04626 676-1245): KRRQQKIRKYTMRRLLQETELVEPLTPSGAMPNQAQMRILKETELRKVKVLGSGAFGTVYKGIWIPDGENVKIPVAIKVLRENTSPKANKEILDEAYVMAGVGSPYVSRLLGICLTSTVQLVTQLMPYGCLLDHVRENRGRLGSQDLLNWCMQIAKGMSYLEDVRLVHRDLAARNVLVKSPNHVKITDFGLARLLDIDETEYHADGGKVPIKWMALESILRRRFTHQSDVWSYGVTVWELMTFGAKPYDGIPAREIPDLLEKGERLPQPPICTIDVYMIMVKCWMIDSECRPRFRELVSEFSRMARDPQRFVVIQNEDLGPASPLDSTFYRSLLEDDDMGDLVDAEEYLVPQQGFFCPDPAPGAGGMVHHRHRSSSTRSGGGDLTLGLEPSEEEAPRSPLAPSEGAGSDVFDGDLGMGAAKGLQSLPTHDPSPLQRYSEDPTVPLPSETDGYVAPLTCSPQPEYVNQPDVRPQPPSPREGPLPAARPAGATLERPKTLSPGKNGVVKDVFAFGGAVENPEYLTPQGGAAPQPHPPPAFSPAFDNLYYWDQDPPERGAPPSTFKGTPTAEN
Below, each entry is listed alongside its reported SI EGFR/HER-2.
Just the number, please, no unit after it.

Reference set (4 entries):
• NC(=S)N1N=C(c2ccc3c(c2)OCCO3)CC1c1cccc(OCc2ccccc2)c1 (centres unmarked) [Compound C6] = 74.8
• NC(=S)N1N=C(c2ccc3c(c2)OCCO3)CC1c1ccc2ccccc2c1 (centres unmarked) [Compound C3] = 0.62
• NC(=S)N1N=C(c2ccc3c(c2)OCCO3)CC1c1ccc(C(F)(F)F)cc1 (centres unmarked) [Compound C17] = 379.6
• NC(=S)N1N=C(c2ccc3c(c2)OCCO3)CC1c1ccc(F)cc1 (centres unmarked) [Compound C11] = 25.2

// sample NC(=S)N1N=C(c2ccc3c(c2)OCCO3)CC1c1ccco1 (centres unmarked) [Compound C19] , its SI EGFR/HER-2 was 16.3

* * *

Documented melting point across a set of compounds

Would you please look over these solved cases?
- NC(=S)N1N=C(c2ccc3c(c2)OCCO3)CC1c1ccc(F)cc1 (centres unmarked) [Compound C11]: 235 to 237 °C
- NC(=S)N1N=C(c2ccc3c(c2)OCCO3)CC1c1ccc2ccccc2c1 (centres unmarked) [Compound C3]: 204 to 206 °C
- COc1cccc(C2CC(c3ccc4c(c3)OCCO4)=NN2C(N)=S)c1 (centres unmarked) [Compound C5]: 168 to 170 °C
- NC(=S)N1N=C(c2ccc3c(c2)OCCO3)CC1c1ccc(Cl)cc1 (centres unmarked) [Compound C12]: 231 to 233 °C
- NC(=S)N1N=C(c2ccc3c(c2)OCCO3)CC1c1cccc(Cl)c1 (centres unmarked) [Compound C7]: 246 to 248 °C

// melting point value for NC(=S)N1N=C(c2ccc3c(c2)OCCO3)CC1c1cccc(OCc2ccccc2)c1 (centres unmarked) [Compound C6] : 178 to 180 °C

* * *

target: EGFR (Homo sapiens, UniProt P00533); test: EGFR autophosphorylation kinase assay (DELFIA/time-resolved fluorometry)
Sequence (P00533 669-1210): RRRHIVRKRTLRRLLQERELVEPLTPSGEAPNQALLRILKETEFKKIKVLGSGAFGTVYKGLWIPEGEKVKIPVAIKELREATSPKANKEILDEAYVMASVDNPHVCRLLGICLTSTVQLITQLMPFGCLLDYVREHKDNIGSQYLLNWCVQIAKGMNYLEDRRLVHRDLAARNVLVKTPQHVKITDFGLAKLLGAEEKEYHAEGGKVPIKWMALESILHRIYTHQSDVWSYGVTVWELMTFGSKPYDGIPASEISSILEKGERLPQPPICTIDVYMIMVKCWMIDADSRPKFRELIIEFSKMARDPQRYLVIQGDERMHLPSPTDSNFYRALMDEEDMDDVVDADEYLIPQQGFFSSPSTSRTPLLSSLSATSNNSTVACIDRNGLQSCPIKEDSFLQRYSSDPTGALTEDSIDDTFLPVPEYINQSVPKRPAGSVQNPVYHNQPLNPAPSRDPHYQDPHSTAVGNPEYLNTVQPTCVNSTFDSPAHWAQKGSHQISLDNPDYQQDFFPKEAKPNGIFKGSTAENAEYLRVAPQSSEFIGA
quantity kind: pIC50
In textbook form, pIC50 equals minus log to base ten of the concentration in mol/L.

These solved cases illustrate the format of a correct answer.
- NC(=S)N1N=C(c2ccc3c(c2)OCCO3)CC1c1ccc(OCc2ccccc2)cc1 (stereo not drawn) [Compound C16]: 4.99
- COc1ccc(C2CC(c3ccc4c(c3)OCCO4)=NN2C(N)=S)cc1OC (stereo not drawn) [Compound C20]: 4.54
- NC(=S)N1N=C(c2ccc3c(c2)OCCO3)CC1c1ccc(Br)cc1 (stereo not drawn) [Compound C13]: 4.09
- Cc1ccc(C2CC(c3ccc4c(c3)OCCO4)=NN2C(N)=S)cc1 (stereo not drawn) [Compound C9]: 4.19

get_value(item= NC(=S)N1N=C(c2ccc3c(c2)OCCO3)CC1c1cccc(Cl)c1 (stereo not drawn) [Compound C7] , readout=pIC50) returns 5.02

Entry NC(=S)N1N=C(c2ccc3c(c2)OCCO3)CC1c1ccc(F)cc1 (stereo not drawn) [Compound C11] , pIC50 reported as 4.32

Measured pIC50 of NC(=S)N1N=C(c2ccc3c(c2)OCCO3)CC1c1ccc(Cl)cc1 (stereo not drawn) [Compound C12] : 4.27

NC(=S)N1N=C(c2ccc3c(c2)OCCO3)CC1c1ccccc1 (stereo not drawn) [Compound C1] has a reported pIC50 of 4.66

The recorded pIC50 for CSc1ccc(C2CC(c3ccc4c(c3)OCCO4)=NN2C(N)=S)cc1 (stereo not drawn) [Compound C15] is 4.56

The molecule identified as NC(=S)N1N=C(c2ccc3c(c2)OCCO3)CC1c1c(F)cccc1F (stereo not drawn) [Compound C18] registered its pIC50 at 4.47

Values were extracted from paper PMC4897788.
